# system: T1, human HGF (R&D material and Peprotech material, values averaged over both) (human, UniProt P14210 32-728)
# T1 construct: As printed they differ in one letter
# T1 sequence (P14210 32-728 limits assumed): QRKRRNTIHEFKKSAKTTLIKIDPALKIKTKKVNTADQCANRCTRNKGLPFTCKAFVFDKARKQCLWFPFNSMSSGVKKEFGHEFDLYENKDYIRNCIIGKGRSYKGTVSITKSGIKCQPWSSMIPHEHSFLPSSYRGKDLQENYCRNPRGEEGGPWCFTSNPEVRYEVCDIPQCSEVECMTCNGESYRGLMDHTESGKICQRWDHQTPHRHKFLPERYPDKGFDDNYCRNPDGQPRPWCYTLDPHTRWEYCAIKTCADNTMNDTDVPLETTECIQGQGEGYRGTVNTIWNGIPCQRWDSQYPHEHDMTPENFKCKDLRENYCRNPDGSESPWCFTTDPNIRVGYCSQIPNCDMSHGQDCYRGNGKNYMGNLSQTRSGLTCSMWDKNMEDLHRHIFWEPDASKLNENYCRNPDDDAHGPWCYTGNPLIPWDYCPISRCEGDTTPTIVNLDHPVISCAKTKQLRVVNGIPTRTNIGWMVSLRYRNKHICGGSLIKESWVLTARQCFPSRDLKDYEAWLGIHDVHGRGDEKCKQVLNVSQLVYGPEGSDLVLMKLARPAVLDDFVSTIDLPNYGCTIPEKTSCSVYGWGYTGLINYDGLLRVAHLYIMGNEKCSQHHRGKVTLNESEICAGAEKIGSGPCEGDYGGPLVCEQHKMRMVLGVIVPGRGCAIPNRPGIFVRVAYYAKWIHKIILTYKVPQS
# protocolText: SPR (Biacore T100), summary table
property: koff (s⁻¹)
Dear colleague, please return just the value in s⁻¹, with no unit written.

Answered cases to consult:
{"binder": "1E2 (VHH, anti-HGF Nanobody clone; not shown: c-myc and His6 tags) VHH: EVQLVESGGGLVQPGGSLRLSCAASGRTFSSYAMGWFRQAPGKEREFVAGISWSGSSSYYADSVKGRFTISRDNAKNTVYLQMNSLKPEDTAVYYCAADPVGRADLYEYDYWGQGTQVTVSS", "measuredValue": 0.0001}
{"binder": "6E10 (VHH, anti-HGF Nanobody clone; not shown: c-myc and His6 tags) VHH: EVQLVESGGGLVQAGGSLRLSCAASGRTDSSYAMGWFRQAPGKEHEFVAAISWSGGSTYYADSVKGRFTISRDNAKNTLYLQMNSLKPEDTAVYYCGASYRWGITHEYEYWGQGTQVTVSS", "measuredValue": "5e-05"}
{"binder": "6H6 (VHH, anti-HGF Nanobody clone; not shown: c-myc and His6 tags) VHH: EVQLMESGGGLVQAGGSLRLSCAASGRTFSSYAMGWFRQAPGKERENVAAISSSGGYTYYPDSVKGRFTISRDTAKNTVYLQMNSLKPDDTAVYYCAGTQPNFGWQLLLLQTEYDYWGQGTQVTVSS", "measuredValue": 0.003}

Could you now consider this next binder?
Returns the measured koff for the input binder. Input: 1E9 (VHH, anti-HGF Nanobody clone; not shown: c-myc and His6 tags) VHH: EVQLVESGGGLVQPGGSLRLSCAASGFTLDHYTIGWFRQAPGNEREGVSCISSLDGSTYYADSVKGRFTISRDNAKDTVYLQMNSLKPEDTAVYYCAVAGCGAYGLIPYDYWGQGTQVTVSS
0.0005

Data credit: patent US20150010546A1
